# protocol description: Pharmacokinetic test on mice
# Format: in vivo, male ICR mice
# run parameters: male, ICR, plasma, po; mouse, orally intragastric 10 mg/kg; read-out: Cmax
Binary label based on Cmax with cut-off 4000 ng/mL: below gives true (1), not below gives false (0).

Example cases with answers are listed next.
compound	group
Cc1nnc(-c2c[nH]c(=O)[nH]c2=O)cc1[C@H]1C[C@@H]1C(F)F [Reference compound 1, reference compound]	true (1)
O=c1[nH]cc(-c2cc([C@H]3C[C@@H]3CC(F)F)c(Cl)nn2)c(=O)[nH]1	false (0)
O=c1[nH]cc(-c2cc([C@@H]3C[C@H]3C(F)(F)F)c(Cl)nn2)c(=O)[nH]1	false (0)
O=c1[nH]cc(-c2cc([C@H]3C[C@@H]3COC(F)(F)F)c(Cl)nn2)c(=O)[nH]1	false (0)
O=c1[nH]cc(-c2cc([C@H]3C[C@@H]3C(F)F)c(Cl)nn2)c(=O)[nH]1 [Reference compound 2, reference compound]	false (0)

Prompt line: Item Cc1nnc(-c2c[nH]c(=O)[nH]c2=O)cc1[C@H]1C[C@@H]1C(C)C [Reference compound 3, reference compound] : Cmax beneath 4000 ng/mL, strictly?
Response line: true (1)

Prompt line: Try this compound next: `O=c1[nH]cc(-c2cc([C@H]3C[C@@H]3C(F)(F)F)c(Cl)nn2)c(=O)[nH]1`
Response line: false (0)

Prompt line: Now try `O=c1[nH]cc(-c2cc([C@H]3C[C@@H]3CF)c(Cl)nn2)c(=O)[nH]1` .
Response line: false (0)
